EXPERIMENT DESCRIPTION: Ratio of drug level in brain to plasma in CD-1 mouse at 30 mg/kg, po by LC-ESI-MS/MS analysis
Assay type: ADME, organism-based
MEASUREMENT PARAMETERS: read-out: BPR

>  <STRUCTURE SMILES>
O=S(=O)(c1ccccc1)n1ccc2c(OCCNCC3CCCCC3)cccc21

>  <Kp>
6.79

$$$$

* * *

TESTED SYSTEM: 5-hydroxytryptamine receptor 6 (Homo sapiens, UniProt P50406)
Sequence (P50406 whole entry): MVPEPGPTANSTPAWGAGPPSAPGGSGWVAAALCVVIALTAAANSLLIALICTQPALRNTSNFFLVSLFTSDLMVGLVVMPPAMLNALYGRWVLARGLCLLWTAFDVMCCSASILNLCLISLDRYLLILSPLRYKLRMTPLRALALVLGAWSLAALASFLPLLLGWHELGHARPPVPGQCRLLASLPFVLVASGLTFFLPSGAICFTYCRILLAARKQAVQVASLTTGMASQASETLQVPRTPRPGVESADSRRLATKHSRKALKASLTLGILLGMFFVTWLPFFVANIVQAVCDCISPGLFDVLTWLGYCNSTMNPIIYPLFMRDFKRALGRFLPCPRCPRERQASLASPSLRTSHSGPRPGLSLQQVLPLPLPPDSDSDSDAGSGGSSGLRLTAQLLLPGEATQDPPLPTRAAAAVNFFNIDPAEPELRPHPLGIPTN
pKi: −log10 of the molar value.
Record 1 (yes) whenever pKi is at 8 or higher; record 0 (no) when lower.

>  <COMPOUND>
CN(C)c1ccc(CNCCOc2cccc3c2ccn3S(=O)(=O)c2ccccc2)cc1

>  <CLASS ASSIGNMENT>
1 (yes)

$$$$
>  <COMPOUND>
COc1ccc(CNCCOc2cccc3c2ccn3S(=O)(=O)c2ccccc2)cc1

>  <CLASS ASSIGNMENT>
1 (yes)

$$$$
>  <COMPOUND>
Cc1cccc(CNCCOc2cccc3c2ccn3Cc2ccccc2)c1

>  <CLASS ASSIGNMENT>
0 (no)

$$$$
>  <COMPOUND>
CN(CCOc1cccc2c1ccn2S(=O)(=O)c1ccccc1)Cc1ccccc1

>  <CLASS ASSIGNMENT>
0 (no)

$$$$
>  <COMPOUND>
c1ccc(CNCCOc2cccc3c2CCN3Cc2ccccc2)cc1

>  <CLASS ASSIGNMENT>
0 (no)

$$$$
>  <COMPOUND>
Cc1cccc(CNCCOc2cccc3c2[nH]c(=O)n3Cc2ccccc2)c1

>  <CLASS ASSIGNMENT>
0 (no)

$$$$
>  <COMPOUND>
CC(C)(C)OC(=O)N1CCCC(CNCCOc2cccc3c2CC(=O)N3Cc2ccccc2)C1 (stereo not given)

>  <CLASS ASSIGNMENT>
0 (no)

$$$$
>  <COMPOUND>
CC(C)(C)OC(=O)N1CCCC(CNCCOc2cccc3c2CCN3Cc2ccccc2)C1 (stereo not given)

>  <CLASS ASSIGNMENT>
0 (no)

$$$$
>  <COMPOUND>
CC(=O)Oc1ccc(CNCCOc2cccc3c2ccn3S(=O)(=O)c2cccc3ccccc23)cc1

>  <CLASS ASSIGNMENT>
0 (no)

$$$$
>  <COMPOUND>
O=S(=O)(c1ccccc1)n1ccc2c(OCCNCC3CCCNC3)cccc21 (stereo not given)

>  <CLASS ASSIGNMENT>
0 (no)

$$$$
>  <COMPOUND>
Cc1ccc(CNCCOc2cccc3c2ccn3S(=O)(=O)c2ccccc2)o1

>  <CLASS ASSIGNMENT>
1 (yes)

$$$$
>  <COMPOUND>
COc1ccc(CNCCOc2cccc3c2ccn3S(=O)(=O)c2ccccc2)cc1OC

>  <CLASS ASSIGNMENT>
1 (yes)

$$$$
>  <COMPOUND>
O=S(=O)(c1ccccc1)n1ccc2c(OCCNCc3cccc(Cl)c3)cccc21

>  <CLASS ASSIGNMENT>
1 (yes)

$$$$
>  <COMPOUND>
CCOc1cccc(CNCCOc2cccc3c2ccn3S(=O)(=O)c2ccccc2)c1

>  <CLASS ASSIGNMENT>
1 (yes)

$$$$
>  <COMPOUND>
Cc1cccc(CNCCOc2cccc3c2CC(=O)N3Cc2ccccc2)c1

>  <CLASS ASSIGNMENT>
0 (no)

$$$$
>  <COMPOUND>
O=S(=O)(c1ccccc1)n1ccc2c(N3CCN(Cc4ccccc4)CC3)cccc21

>  <CLASS ASSIGNMENT>
0 (no)

$$$$
>  <COMPOUND>
O=S(=O)(c1ccccc1)n1ccc2c(OCCNCC3CC3)cccc21

>  <CLASS ASSIGNMENT>
1 (yes)

$$$$
>  <COMPOUND>
O=[N+]([O-])c1ccc(CNCCOc2cccc3c2ccn3S(=O)(=O)c2ccccc2)cc1

>  <CLASS ASSIGNMENT>
0 (no)

$$$$
>  <COMPOUND>
O=C1Cc2c(OCCNCc3ccccc3)cccc2N1Cc1ccccc1

>  <CLASS ASSIGNMENT>
0 (no)

$$$$
>  <COMPOUND>
O=S(=O)(c1ccccc1)n1ccc2c(OCCNCc3cccc(C(F)(F)F)c3)cccc21

>  <CLASS ASSIGNMENT>
1 (yes)

$$$$
>  <COMPOUND>
CNCCOc1cccc2c1ccn2S(=O)(=O)c1ccccc1

>  <CLASS ASSIGNMENT>
1 (yes)

$$$$
>  <COMPOUND>
c1ccc(CNCCOc2cccc3c2ccn3Cc2ccccc2)cc1

>  <CLASS ASSIGNMENT>
0 (no)

$$$$
>  <COMPOUND>
O=S(=O)(c1ccccc1)n1ccc2c(OCCNCc3ccc4c(c3)OCCO4)cccc21

>  <CLASS ASSIGNMENT>
1 (yes)

$$$$
>  <COMPOUND>
CC(=O)Nc1ccc(CNCCOc2cccc3c2ccn3S(=O)(=O)c2ccccc2)cc1

>  <CLASS ASSIGNMENT>
1 (yes)

$$$$
>  <COMPOUND>
O=S(=O)(c1ccccc1)n1ccc2c(OCCNCc3ccccn3)cccc21

>  <CLASS ASSIGNMENT>
1 (yes)

$$$$
>  <COMPOUND>
O=c1[nH]c2c(OCCNCc3ccccc3)cccc2n1Cc1ccccc1

>  <CLASS ASSIGNMENT>
0 (no)

$$$$
>  <COMPOUND>
CC(C)(C)OC(=O)N1CCCC(CNCCOc2cccc3c2[nH]c(=O)n3Cc2ccccc2)C1 (stereo not given)

>  <CLASS ASSIGNMENT>
0 (no)

$$$$
>  <COMPOUND>
COc1cccc(CNCCOc2cccc3c2ccn3S(=O)(=O)c2ccccc2)c1

>  <CLASS ASSIGNMENT>
1 (yes)

$$$$
>  <COMPOUND>
Cc1cccc(CNCCOc2cccc3c2CCN3Cc2ccccc2)c1

>  <CLASS ASSIGNMENT>
0 (no)

$$$$
>  <COMPOUND>
CC(C)(C)OC(=O)N1CCCC(CNCCOc2cccc3c2ccn3Cc2ccccc2)C1 (stereo not given)

>  <CLASS ASSIGNMENT>
0 (no)

$$$$
>  <COMPOUND>
O=S(=O)(c1ccccc1)n1ccc2c(OCCNCc3ccncc3)cccc21

>  <CLASS ASSIGNMENT>
1 (yes)

$$$$
>  <COMPOUND>
CC(=O)Oc1ccc(CNCCOc2cccc3c2CCN3S(=O)(=O)c2ccccc2)cc1

>  <CLASS ASSIGNMENT>
0 (no)

$$$$
